# System: ATP;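 further: ATP exposure 15 min at 22 °C before imaging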
# test summary: switch fluorescence ratio, 500 uM ATP over buffer (Cy3 cluster intensity, sum of 5 cycles each) (fold (ratio)); higher = stronger signal-on switching upon ATP binding; sequences stand for … in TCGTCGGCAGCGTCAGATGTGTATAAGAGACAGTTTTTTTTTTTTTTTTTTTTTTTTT…TC
# study conditions: aptamer strand: ATP DNA aptamer (quencher-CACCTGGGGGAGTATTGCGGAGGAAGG + anchor), 100 nM annealed; ATP concentration: 500 uM
attribute measured: switch fluorescence ratio

Prompt: # return switch fluorescence ratio for AGGGCCTTAG , test system: ATP;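 further: ATP exposure 15 min at 22 °C before imaging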
Completion: 0.973

Prompt: # return switch fluorescence ratio for TTACGACCGG , test system: ATP;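 further: ATP exposure 15 min at 22 °C before imaging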
Completion: 1.01

Prompt: # return switch fluorescence ratio for TACGGGGGTA , test system: ATP;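 further: ATP exposure 15 min at 22 °C before imaging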
Completion: 1.02

Prompt: # return switch fluorescence ratio for TTGTTATACG , test system: ATP;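 further: ATP exposure 15 min at 22 °C before imaging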
Completion: 1.09

Prompt: # return switch fluorescence ratio for TTGTTGGTTA , test system: ATP;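 further: ATP exposure 15 min at 22 °C before imaging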
Completion: 0.992

Prompt: # return switch fluorescence ratio for AGCAAGGGCG , test system: ATP;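 further: ATP exposure 15 min at 22 °C before imaging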
Completion: 1.06

====

# System: ATP;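 further: ATP exposure 15 min at 22 °C before imaging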
# test summary: switch fluorescence ratio, 500 uM ATP over buffer (Cy3 cluster intensity, sum of 5 cycles each) (fold (ratio)); higher = stronger signal-on switching upon ATP binding; sequences stand for … in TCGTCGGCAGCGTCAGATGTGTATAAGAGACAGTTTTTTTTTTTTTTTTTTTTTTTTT…TC
# study conditions: aptamer strand: ATP DNA aptamer (quencher-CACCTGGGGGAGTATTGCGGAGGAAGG + anchor), 100 nM annealed; ATP concentration: 500 uM
attribute measured: switch fluorescence ratio
Note: the reply should be a number with no unit written.

Prompt: Quote switch fluorescence ratio reported for TTTTCATTCG please.
Completion: 1

Prompt: Quote switch fluorescence ratio reported for CCATGCACTG please.
Completion: 1.02

Prompt: Quote switch fluorescence ratio reported for CGGTTTGGTA please.
Completion: 0.976

Prompt: Quote switch fluorescence ratio reported for CGAATCAAAC please.
Completion: 1.52

Prompt: Quote switch fluorescence ratio reported for TAAAGCGCGG please.
Completion: 1.07

Prompt: Quote switch fluorescence ratio reported for TTCGTTCTTC please.
Completion: 0.993

Prompt: Quote switch fluorescence ratio reported for TCGCTTTTTT please.
Completion: 1.03

Prompt: Quote switch fluorescence ratio reported for GAGGTACTTG please.
Completion: 0.975

Prompt: Quote switch fluorescence ratio reported for AAGAATTGTG please.
Completion: 0.992

Prompt: Quote switch fluorescence ratio reported for CAGATCCGGG please.
Completion: 1

Prompt: Quote switch fluorescence ratio reported for CCACGCCCGG please.
Completion: 1.15

Prompt: Quote switch fluorescence ratio reported for AGATTGGGCT please.
Completion: 0.997

Prompt: Quote switch fluorescence ratio reported for TGTATTTCGT please.
Completion: 1.01

Prompt: Quote switch fluorescence ratio reported for GGGTAGGGTT please.
Completion: 0.983

Prompt: Quote switch fluorescence ratio reported for AATGCTGTAT please.
Completion: 0.985

Prompt: Quote switch fluorescence ratio reported for TCGGGGTAGC please.
Completion: 0.974

Prompt: Quote switch fluorescence ratio reported for TCCGGGTTTT please.
Completion: 0.963

Prompt: Quote switch fluorescence ratio reported for TGTGAGTTTG please.
Completion: 1.03

====

Provide the recorded switch fluorescence ratio for the entries that follow.
# Test system: ATP;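 further: ATP exposure 15 min at 22 °C before imaging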
# test summary: switch fluorescence ratio, 500 uM ATP over buffer (Cy3 cluster intensity, sum of 5 cycles each) (fold (ratio)); higher = stronger signal-on switching upon ATP binding; sequences stand for … in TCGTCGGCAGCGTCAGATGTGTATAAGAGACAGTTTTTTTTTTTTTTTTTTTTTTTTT…TC
# study conditions: aptamer strand: ATP DNA aptamer (quencher-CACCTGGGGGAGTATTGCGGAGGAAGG + anchor), 100 nM annealed; ATP concentration: 500 uM
Note: the reply should be a number with no unit written.

Prompt: Quote switch fluorescence ratio reported for GGTTGGCCCC please.
Completion: 1.02

Prompt: Quote switch fluorescence ratio reported for GTGAGGCGCT please.
Completion: 1.03

Prompt: Quote switch fluorescence ratio reported for TGGGGGAGCG please.
Completion: 0.99

Prompt: Quote switch fluorescence ratio reported for TCGGTATATG please.
Completion: 0.991

Prompt: Quote switch fluorescence ratio reported for GAGCCGTATT please.
Completion: 1.02

Prompt: Quote switch fluorescence ratio reported for CGCAGGCACG please.
Completion: 1.07

Prompt: Quote switch fluorescence ratio reported for GGGATAAGAG please.
Completion: 0.973

Prompt: Quote switch fluorescence ratio reported for TATTGGAGTG please.
Completion: 0.966

Prompt: Quote switch fluorescence ratio reported for ACTAAGGATT please.
Completion: 1.02

Prompt: Quote switch fluorescence ratio reported for TTGAGAATAC please.
Completion: 1.62

Prompt: Quote switch fluorescence ratio reported for AGTGAGTCGT please.
Completion: 0.961

Prompt: Quote switch fluorescence ratio reported for TGGTTTGGCA please.
Completion: 0.962

Prompt: Quote switch fluorescence ratio reported for CTTTCGGGCT please.
Completion: 1.01

Prompt: Quote switch fluorescence ratio reported for ATTTAGACTT please.
Completion: 1.04

Prompt: Quote switch fluorescence ratio reported for TTAGAGGAAC please.
Completion: 0.965

Prompt: Quote switch fluorescence ratio reported for AGAGGGGTCT please.
Completion: 1.02
